The measurements presented in this section are drawn from the Human Domainome abundance scans (Beltran et al. 2025).

B1: Calcium-binding protein 2, residues 155 to 219; numbered along this chain, Q9NPB3 (parent)
chain: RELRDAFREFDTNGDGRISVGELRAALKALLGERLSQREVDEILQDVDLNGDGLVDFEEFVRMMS

Variants of: B1
Assay: abundance fitness (aPCA) (normalised: wild type 0, dead -1); higher = more abundant; growth selection in yeast, the domain comes from the species named
Details: Homo sapiens
true means recorded abundance fitness is -0.2 or above; false means it is below -0.2.

[
  {
    "variant": "F7C",
    "assigned label": "false"
  },
  {
    "variant": "R38G",
    "assigned label": "true"
  },
  {
    "variant": "G14E",
    "assigned label": "true"
  },
  {
    "variant": "R38A",
    "assigned label": "true"
  },
  {
    "variant": "Q45A",
    "assigned label": "true"
  },
  {
    "variant": "R4F",
    "assigned label": "false"
  },
  {
    "variant": "L23N",
    "assigned label": "false"
  },
  {
    "variant": "M63P",
    "assigned label": "false"
  },
  {
    "variant": "R8V",
    "assigned label": "true"
  },
  {
    "variant": "A25G",
    "assigned label": "true"
  },
  {
    "variant": "G21Q",
    "assigned label": "true"
  }
]
